# SUBJECT_OF_TEST: T1, KP1.2 peptide of the D2E2 loop of the Nav1.7 channel (human, not fully specified)
# T1 construct: also called human NAV1.7 peptide
# T1 peptide: H-VELFLADVEGC-NH2
# EXPERIMENT_DESCRIPTION: DELFIA: KP1.2 peptide on streptavidin plate, purified antibody undiluted, Eu-labelled anti-human IgG, time-resolved fluorescence at 615 nm
READOUT_NAME: binding result

BINDER	RESULT
25C01 (antibody, V domains shown, Detected with anti-human IgG) VH: EVHLVESGGGLVQPGGSLRLSCSASRFTFSTSAMTWVRQAPGKGLEWVSVISASGTTTYYGDSVKGRFTISRDNSKNTLHLQMNSLRAEDTAVYYCAKGGLAVPGPNYWGQGTLVTVSS VL: DVVMTQSPLSLPVTLGQPASISCRSSQSLVFSDGNTYLTWFQQRPGQSPRRLIYKVSDRDSGVPDRFSGSGSGTDFTLQISRVEAEDVGLYYCMQGSHWPLTFGGGTKVEIK	binds
25F08 (antibody, V domains shown, Detected with anti-human IgG) VH: QVQLVQSGPEVKKPGASVKVSCQASGYTFTTYGINWVRQAPGQGLEWMGRISAYNGNTNYAQKFQGRVTMTTDTSTRTAYMEMSNLISDDTAVYYCARDGAPQDHWGQGTLITVSS VL: DIQMTQSPSSLSVSVGDRITITCRASQDISNSLAWFQQKPGKAPKSLIFAASSLQSGVPSKFSGSGSGTDFNFTISSLQPEDFATYYCQQYNSFPLTFGGGTKVEIK	binds
